Sourced from PubChem BioAssay AID1963445

Tested on: MCF7 complex spheroid growth, % test/control
Assay: Anticancer human tumor MCF7 cell line growth inhibition [Asc];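 note: spheroids exposed to compounds for 7 days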
Conditions: curve of first compound; second compound 0.01 µM
QUANTITY_NAME: IC50

[
  {
    "MOLECULE": "O=C(c1cc(Cc2n[nH]c(=O)c3ccccc23)ccc1F)N1CCN(C(=O)C2CC2)CC1 + CNC(C)C(=O)NC1CN(S(=O)(=O)c2cccc(S(=O)(=O)N3CCC4CCC(C(=O)NC(c5ccccc5)c5ccccc5)N4C(=O)C(NC(=O)C(C)NC)C3)c2)CCC2CCC(C(=O)NC(c3ccccc3)c3ccccc3)N2C1=O",
    "VALUE_REPORTED": "< 31.6 nM"
  },
  {
    "MOLECULE": "CCN1C(C(=O)NC23CCC(C(=O)O)(CC2)CC3)C(c2cccc(Cl)c2F)C2(C(=O)Nc3cc(Cl)ccc32)C12CCCCC2 (centres undefined) + CNC(C)C(=O)NC1CN(S(=O)(=O)c2cccc(S(=O)(=O)N3CCC4CCC(C(=O)NC(c5ccccc5)c5ccccc5)N4C(=O)C(NC(=O)C(C)NC)C3)c2)CCC2CCC(C(=O)NC(c3ccccc3)c3ccccc3)N2C1=O",
    "VALUE_REPORTED": "< 9.49 nM"
  },
  {
    "MOLECULE": "Cc1nc(N2CCC3(CC2)COC(C)C3N)c(CO)nc1Sc1ccnc(N)c1Cl (centres undefined) + CNC(C)C(=O)NC1CN(S(=O)(=O)c2cccc(S(=O)(=O)N3CCC4CCC(C(=O)NC(c5ccccc5)c5ccccc5)N4C(=O)C(NC(=O)C(C)NC)C3)c2)CCC2CCC(C(=O)NC(c3ccccc3)c3ccccc3)N2C1=O",
    "VALUE_REPORTED": "< 9.49 nM"
  }
]

Continue with the molecule presented below.
# returns recorded IC50 (system: MCF7 complex spheroid growth, % test/control) for O=C(c1ccc(F)c(F)c1Nc1ccc(I)cc1F)N1CC(O)([C@@H]2CCCCN2)C1 + CNC(C)C(=O)NC1CN(S(=O)(=O)c2cccc(S(=O)(=O)N3CCC4CCC(C(=O)NC(c5ccccc5)c5ccccc5)N4C(=O)C(NC(=O)C(C)NC)C3)c2)CCC2CCC(C(=O)NC(c3ccccc3)c3ccccc3)N2C1=O
< 3.16 nM

---

Test system: MCF7 complex spheroid growth, % test/control
Assay: Anticancer human tumor MCF7 cell line growth inhibition [Asc];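 note: spheroids exposed to compounds for 7 days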;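 for viability, T/C: 100% = DMSO vehicle control wells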
Conditions: second compound 0.3 µM; first compound 0.00316 µM; stronger effect = lower value
Description: Multicellular complex tumor spheroid response to apoptosis pathway targeting inhibitors Alrizomadlin, Pelcitoclax, and Dasminapant in combination with a variety of drugs and investigational agents in selected tumor cell lines […] Compounds. […] If the clinical Cmax for an agent had not been determined, the highest concentration tested was 10 microM. […]
QUANTITY_NAME: viability, T/C (%)
Expressed in %, but write only the number.

Some compounds with known viability, T/C results, for comparison:
[
  {
    "COMPOUND": "O=C(c1ccc(F)c(F)c1Nc1ccc(I)cc1F)N1CC(O)([C@@H]2CCCCN2)C1 + CCN1C(C(=O)NC23CCC(C(=O)O)(CC2)CC3)C(c2cccc(Cl)c2F)C2(C(=O)Nc3cc(Cl)ccc32)C12CCCCC2",
    "SUBJECT_OF_TEST": "MCF7 complex spheroid growth, % test/control",
    "VALUE_REPORTED": 32.1
  },
  {
    "COMPOUND": "CNC(C)C(=O)NC1CN(S(=O)(=O)c2cccc(S(=O)(=O)N3CCC4CCC(C(=O)NC(c5ccccc5)c5ccccc5)N4C(=O)C(NC(=O)C(C)NC)C3)c2)CCC2CCC(C(=O)NC(c3ccccc3)c3ccccc3)N2C1=O (stereo unspecified) + CCN1C(C(=O)NC23CCC(C(=O)O)(CC2)CC3)C(c2cccc(Cl)c2F)C2(C(=O)Nc3cc(Cl)ccc32)C12CCCCC2",
    "SUBJECT_OF_TEST": "MCF7 complex spheroid growth, % test/control",
    "VALUE_REPORTED": 15.1
  },
  {
    "COMPOUND": "CCN1CCN(Cc2ccc(Nc3ncc(F)c(-c4cc(F)c5nc(C)n(C(C)C)c5c4)n3)nc2)CC1 + CCN1C(C(=O)NC23CCC(C(=O)O)(CC2)CC3)C(c2cccc(Cl)c2F)C2(C(=O)Nc3cc(Cl)ccc32)C12CCCCC2",
    "SUBJECT_OF_TEST": "MCF7 complex spheroid growth, % test/control",
    "VALUE_REPORTED": 31.8
  }
]

Need viability, T/C, item Cn1ncnc1[C@H]1c2n[nH]c(=O)c3cc(F)cc(c23)N[C@@H]1c1ccc(F)cc1 + CCN1C(C(=O)NC23CCC(C(=O)O)(CC2)CC3)C(c2cccc(Cl)c2F)C2(C(=O)Nc3cc(Cl)ccc32)C12CCCCC2
29.7

Need viability, T/C, item NC1CCC(NC2CC2c2ccccc2)CC1 (stereo unspecified) + CCN1C(C(=O)NC23CCC(C(=O)O)(CC2)CC3)C(c2cccc(Cl)c2F)C2(C(=O)Nc3cc(Cl)ccc32)C12CCCCC2
43.8

Need viability, T/C, item COc1c(OCCCN2CCOCC2)ccc2c3n(c(=NC(=O)c4cnc(N)nc4)nc12)CCN3 + CCN1C(C(=O)NC23CCC(C(=O)O)(CC2)CC3)C(c2cccc(Cl)c2F)C2(C(=O)Nc3cc(Cl)ccc32)C12CCCCC2
26.4
